Item-by-item account of Papp B→A at 120 min, 5 μM
# Test system: MDR1 (P-gp)
# experiment.summary: in vitro
# condition.context: dog, MDCK-MDR1, pH 7.4
experimental.readout: Papp B→A at 120 min, 5 μM (×10⁻⁶ cm/s)

| molecule | assayed.target | experimental.readout | units | numeric.readout |
| --- | --- | --- | --- | --- |
| Cc1nc2cc(-c3ccc(N(C)[C@@H]4C[C@H]5CC[C@@H]([C@@H]4F)N5C)nn3)c(O)cc2c(=O)n1C [Compound 105A] | MDR1 (P-gp) | Papp B→A at 120 min, 5 μM | ×10⁻⁶ cm/s | 56.9 |
| CN(c1ccc(-c2cc3cnccc3cc2O)nn1)[C@H]1C[C@@H]2CC(F)(F)[C@H](C1)N2 [Compound 126B] | MDR1 (P-gp) | Papp B→A at 120 min, 5 μM | ×10⁻⁶ cm/s | 39.4 |
| O=c1c2cc(O)c(-c3ccc(N(C4CC4)[C@H]4C[C@@H]5CC[C@@H](N5)[C@H]4F)nn3)cc2ncn1CC(F)(F)F (single isomer, unassigned) [Compound 60B] | MDR1 (P-gp) | Papp B→A at 120 min, 5 μM | ×10⁻⁶ cm/s | 53 |
| CN(c1ccc(-c2cc3ncn(CC(F)(F)F)c(=O)c3cc2O)nn1)[C@H]1C[C@@H]2CCC[C@H]([C@H]1F)N2C (single isomer, unassigned) [Compound 109B] | MDR1 (P-gp) | Papp B→A at 120 min, 5 μM | ×10⁻⁶ cm/s | 63.3 |
| O=C(c1cc2cc(O)c(-c3ccc(N(C4CC4)[C@@H]4C[C@H]5CC[C@H](N5)[C@@H]4F)nn3)cc2o1)N1CCC1 [Compound 57A] | MDR1 (P-gp) | Papp B→A at 120 min, 5 μM | ×10⁻⁶ cm/s | 63.2 |
| CN(c1ccc(-c2cc3occc(=O)c3cc2O)nn1)[C@@H]1C[C@H]2CC[C@@H]([C@@H]1F)N2C (single isomer, unassigned) [Compound 94A] | MDR1 (P-gp) | Papp B→A at 120 min, 5 μM | ×10⁻⁶ cm/s | 33.9 |
